- SYSTEM NAME: T1, TFAM WT (mature) (Homo sapiens, UniProt Q00059 43-246)
- T1 sequence: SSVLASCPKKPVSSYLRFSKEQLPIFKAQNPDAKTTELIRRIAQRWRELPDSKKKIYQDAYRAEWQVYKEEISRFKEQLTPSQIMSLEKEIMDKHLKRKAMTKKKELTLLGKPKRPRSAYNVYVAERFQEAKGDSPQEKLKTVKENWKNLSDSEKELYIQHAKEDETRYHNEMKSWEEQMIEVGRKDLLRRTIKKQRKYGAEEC
- ASSAY OVERVIEW: EMSA
MEASUREMENT TYPE: Kd (nM)
Give bare numbers, in nM.

# input binder: Site-X 22 (dsDNA) DNA 1: TAACAAAAAATTTCCACCAAAC DNA 2: TTTGGTGGAAATTTTTTGTTAG ; wanted: its Kd
13.6
